meta.source: ChEMBL document CHEMBL1149673

Organism: Homo sapiens
Assay: Selectivity for Cdk5/p25 over Cdk2/cyclin E
Each item that follows carries a reported Ratio IC50.
readout: Ratio IC50

| structure notation | reading |
| --- | --- |
| O=C(CCl)Nc1cc(-c2ccccc2)c(-c2nnc3n2NC(c2ccccc2)=C(c2ccccc2)S3)s1 | 2 |
| CC(=O)Nc1cc(-c2ccccc2)c(-c2nnc3sc(-c4cccc([N+](=O)[O-])c4)nn23)s1 | 1 |
| Cc1cc(NC(=O)CCl)sc1-c1nnc2n1Nc1nc3ccccc3nc1S2 | 2.2 |
| CC(=O)Nc1cc(C)c(-c2nnc3n2Nc2nc4ccccc4nc2S3)s1 | 2 |
| CC(=O)Nc1cc(C)c(-c2nnc3sc(-c4ccccc4)nn23)s1 | 1.2 |
| CC(=O)Nc1cc(-c2ccccc2)c(-c2nnc3n2NC(c2ccccc2)=C(c2ccccc2)S3)s1 | 2 |
| CC(=O)Nc1cc(-c2ccccc2)c(-c2nnc3sc(-c4ccccc4)nn23)s1 | 1.2 |
| O=C(CCl)Nc1cc(-c2ccccc2)c(-c2nnc3sc(-c4cccc([N+](=O)[O-])c4)nn23)s1 | 1 |
| Cc1cc(NC(=O)CCl)sc1-c1nnc2sc(-c3cccc([N+](=O)[O-])c3)nn12 | 1 |

----------
Target: Cyclin-dependent kinase 5/CDK5 activator 1 (Homo sapiens, UniProt Q00535)
Sequence (Q00535 whole entry): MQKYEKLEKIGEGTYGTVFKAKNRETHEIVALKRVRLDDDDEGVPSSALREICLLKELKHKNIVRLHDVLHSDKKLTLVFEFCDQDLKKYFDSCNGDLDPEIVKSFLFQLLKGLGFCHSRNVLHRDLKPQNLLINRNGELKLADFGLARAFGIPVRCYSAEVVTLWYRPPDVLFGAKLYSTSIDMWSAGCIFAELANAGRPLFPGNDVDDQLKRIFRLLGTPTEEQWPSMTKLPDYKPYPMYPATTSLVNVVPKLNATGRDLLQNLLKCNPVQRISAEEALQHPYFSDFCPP
Sequence (Q15078 whole entry, further chain): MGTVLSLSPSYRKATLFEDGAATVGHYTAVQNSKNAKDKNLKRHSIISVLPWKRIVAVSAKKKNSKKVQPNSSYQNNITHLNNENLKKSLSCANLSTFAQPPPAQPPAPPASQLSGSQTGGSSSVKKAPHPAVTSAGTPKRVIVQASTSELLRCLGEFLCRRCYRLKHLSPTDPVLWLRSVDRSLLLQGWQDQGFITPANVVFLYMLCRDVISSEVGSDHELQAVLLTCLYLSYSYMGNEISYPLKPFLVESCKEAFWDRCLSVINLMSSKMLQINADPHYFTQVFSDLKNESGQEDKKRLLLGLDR
Experiment: Inhibitory activity against Cdk5/p25
pIC50: −log10 of the molar value.
Each item that follows carries a reported pIC50.
readout: pIC50

| structure notation | target under test | readout | reading |
| --- | --- | --- | --- |
| CC1=Nn2c(nnc2-c2sc(NC(=O)CCl)cc2C)SC1 | Cyclin-dependent kinase 5/CDK5 activator 1 (Homo sapiens, UniProt Q00535) | pIC50 | 6.34 |
| CC(=O)Nc1cc(C)c(-c2nnc3n2NC(=O)CS3)s1 | Cyclin-dependent kinase 5/CDK5 activator 1 (Homo sapiens, UniProt Q00535) | pIC50 | 6.20 |
| Cc1cc(NC(=O)CCl)sc1-c1nnc2sc(-c3ccccc3)nn12 | Cyclin-dependent kinase 5/CDK5 activator 1 (Homo sapiens, UniProt Q00535) | pIC50 | 7.52 |
| CC(=O)Nc1cc(-c2ccccc2)c(-c2nnc3n2NC(c2ccccc2)=C(c2ccccc2)S3)s1 | Cyclin-dependent kinase 5/CDK5 activator 1 (Homo sapiens, UniProt Q00535) | pIC50 | 7.40 |
| CC(=O)Nc1cc(-c2ccccc2)c(-c2nnc3n2NC(=O)CS3)s1 | Cyclin-dependent kinase 5/CDK5 activator 1 (Homo sapiens, UniProt Q00535) | pIC50 | 6.38 |
| CC(=O)Nc1cc(-c2ccccc2)c(-c2nnc3n2N=C(c2cc(F)c(Cl)cc2Cl)/C(=C/c2ccccc2Cl)S3)s1 | Cyclin-dependent kinase 5/CDK5 activator 1 (Homo sapiens, UniProt Q00535) | pIC50 | 5.61 |
| CC(=O)Nc1cc(-c2ccccc2)c(-c2nnc3sc(-c4cccc([N+](=O)[O-])c4)nn23)s1 | Cyclin-dependent kinase 5/CDK5 activator 1 (Homo sapiens, UniProt Q00535) | pIC50 | 7.22 |
| CC(=O)Nc1cc(C)c(-c2nnc3n2N=C(c2cc(F)c(Cl)cc2Cl)/C(=C/c2cccc([N+](=O)[O-])c2)S3)s1 | Cyclin-dependent kinase 5/CDK5 activator 1 (Homo sapiens, UniProt Q00535) | pIC50 | 5.52 |
| O=C(CCl)Nc1cc(-c2ccccc2)c(-c2nnc3sc(-c4cccc([N+](=O)[O-])c4)nn23)s1 | Cyclin-dependent kinase 5/CDK5 activator 1 (Homo sapiens, UniProt Q00535) | pIC50 | 7.32 |
| CC(=O)Nc1cc(-c2ccccc2)c(-c2nnc3sc(=S)[nH]n23)s1 | Cyclin-dependent kinase 5/CDK5 activator 1 (Homo sapiens, UniProt Q00535) | pIC50 | 5.69 |
| CC(=O)Nc1cc(C)c(-c2nnc3sc(-c4ccccc4)nn23)s1 | Cyclin-dependent kinase 5/CDK5 activator 1 (Homo sapiens, UniProt Q00535) | pIC50 | 7.38 |
| Cc1cc(NC(=O)CCl)sc1-c1nnc(S)n1N | Cyclin-dependent kinase 5/CDK5 activator 1 (Homo sapiens, UniProt Q00535) | pIC50 | 7.34 |
| O=C(CCl)Nc1cc(-c2ccccc2)c(-c2nnc3n2N=C(c2cc(F)c(Cl)cc2Cl)/C(=C/c2cccc([N+](=O)[O-])c2)S3)s1 | Cyclin-dependent kinase 5/CDK5 activator 1 (Homo sapiens, UniProt Q00535) | pIC50 | 5.57 |
| Cc1cc(NC(=O)CCl)sc1-c1nnc2n1N=C(c1cc(F)c(Cl)cc1Cl)/C(=C/c1ccccc1Cl)S2 | Cyclin-dependent kinase 5/CDK5 activator 1 (Homo sapiens, UniProt Q00535) | pIC50 | 5.48 |
| CC(=O)Nc1cc(C)c(-c2nnc3n2N=C(c2cc(F)c(Cl)cc2Cl)/C(=C/c2ccccc2)S3)s1 | Cyclin-dependent kinase 5/CDK5 activator 1 (Homo sapiens, UniProt Q00535) | pIC50 | 5.63 |
| CC(=O)Nc1cc(C)c(-c2nnc(S)n2N)s1 | Cyclin-dependent kinase 5/CDK5 activator 1 (Homo sapiens, UniProt Q00535) | pIC50 | 7.24 |
| Cc1cc(NC(=O)CCl)sc1-c1nnc2n1N=C(c1cc(F)c(Cl)cc1Cl)/C(=C/c1ccccc1)S2 | Cyclin-dependent kinase 5/CDK5 activator 1 (Homo sapiens, UniProt Q00535) | pIC50 | 5.47 |
| O=C(CCl)Nc1cc(-c2ccccc2)c(-c2nnc3n2Nc2nc4ccccc4nc2S3)s1 | Cyclin-dependent kinase 5/CDK5 activator 1 (Homo sapiens, UniProt Q00535) | pIC50 | 7.52 |
| O=C(CCl)Nc1cc(-c2ccccc2)c(-c2nnc3sc(S)nn23)s1 | Cyclin-dependent kinase 5/CDK5 activator 1 (Homo sapiens, UniProt Q00535) | pIC50 | 5.23 |
| CC(=O)Nc1cc(C)c(-c2nnc3n2N=C(C)CS3)s1 | Cyclin-dependent kinase 5/CDK5 activator 1 (Homo sapiens, UniProt Q00535) | pIC50 | 6.19 |
